Where do these numbers come from? They come from PubChem BioAssay (NCI).

Test system: LOX IMVI melanoma
measurement protocol: NCI tumour cell line growth inhibition, 48 h
readout name: GI50

Exercise: Please state recorded GI50 (tested on LOX IMVI melanoma) of CN(C)c1ccc(/C=C2\C[C@H]3[C@@H]4CC=C5C[C@@H](N6CCCC6)CC[C@]5(C)[C@H]4CC[C@]3(C)[C@H]2O)cc1
Solution: 2250 nM

Exercise: Please state recorded GI50 (tested on LOX IMVI melanoma) of CCN1CCN(c2nc(NNC(=O)Cc3ccccc3)nc(N3CCN(C(c4ccccc4)c4ccccc4)CC3)n2)CC1
Solution: 1890 nM

Exercise: Please state recorded GI50 (tested on LOX IMVI melanoma) of C=C1CCC2C3(C)COC(c4ccc(NC(C)=O)cc4)OC3CCC2(C)C1C/C=C1/C(=O)OCC1O (stereo not drawn)
Solution: 21000 nM

Exercise: Please state recorded GI50 (tested on LOX IMVI melanoma) of CN(C)CCCNc1nn2c(=O)c3ccccc3nc2c2ccccc12
Solution: 3800 nM

Exercise: Please state recorded GI50 (tested on LOX IMVI melanoma) of O=C(NCc1cccnc1)/C(=C\c1ccc(Br)cc1)S(=O)(=O)c1ccccc1
Solution: 450 nM

Exercise: Please state recorded GI50 (tested on LOX IMVI melanoma) of COc1ccc(OC)c(-c2nc3sccn3c2/C=C2/C(=O)Nc3ccc(Cl)cc32)c1
Solution: 18200 nM

Exercise: Please state recorded GI50 (tested on LOX IMVI melanoma) of Cl.[Pt].[c-]1ccccc1-c1ccccn1.c1ccc(P(c2ccccc2)C([PH+](c2ccccc2)c2ccccc2)[PH+](c2ccccc2)c2ccccc2)cc1
Solution: 1650 nM

Exercise: Please state recorded GI50 (tested on LOX IMVI melanoma) of CCN(CC)CCN1C(=O)c2c(c(C)c3c(oc4cc(O)ccc43)c2C)C1=O
Solution: 1700 nM

----------
System: HCT-15 colon
measurement protocol: NCI tumour cell line growth inhibition, 48 h
readout name: TGI (µM)
Provide only the numeric value, understood in µM.

Exercise: Requested read-out: TGI. Entry: CCN(CC)CCN1C(=O)c2c(c(C)c3c(oc4cc(O)ccc43)c2C)C1=O
Solution: 3.32

Exercise: Requested read-out: TGI. Entry: CCCCCCCCCCCC(=O)OCC1OC(n2cc(F)c(=O)[nH]c2=O)C(NC(=O)OCc2ccccc2)C(O)C1O (stereo not given)
Solution: 43.5

Exercise: Requested read-out: TGI. Entry: COC(=O)C[CH](C(=O)OC)[Ge]([CH3])([CH3])[S]c1ccccc1 (stereo not given)
Solution: 27.6

----------
Tested on: SF-268 CNS
measurement protocol: NCI tumour cell line growth inhibition, 48 h
# cutoff 5 µM applies to TGI; >= gives 1, < gives -1

Exercise: Identify whether the reported TGI of the following compound is 5 µM or greater: COc1ccc(/C=C2\Cc3ccccc3C2=O)cc1OC
Solution: 1

Exercise: Identify whether the reported TGI of the following compound is 5 µM or greater: Cc1cccc(C(C)(C)C)c1NC(=O)/C(Cc1nc2ccc([N+](=O)[O-])cc2[nH]c1=O)=N/NC(=O)C[N+](C)(C)C
Solution: 1

Exercise: Identify whether the reported TGI of the following compound is 5 µM or greater: CC1=C(C(=O)OCCc2ccc([N+](=O)[O-])cc2)C(c2ccccc2[N+](=O)[O-])C(C(=O)OC(C)C)=C(C)N1 (stereo not drawn)
Solution: 1

Exercise: Identify whether the reported TGI of the following compound is 5 µM or greater: CCC1(CC)C(=O)CC[C@@]2(C)C1=CC[C@H]1[C@@H]3CC[C@H](O)[C@@]3(C)CC[C@@H]12
Solution: 1

Exercise: Identify whether the reported TGI of the following compound is 5 µM or greater: CC(=O)N(CN1C(=O)CCC1C(=O)O)c1ccccc1 (stereo not drawn)
Solution: 1

Exercise: Identify whether the reported TGI of the following compound is 5 µM or greater: CC(=O)/C=C/C=C(\C)CC/C=C(\C)CC(C)C
Solution: 1

Exercise: Identify whether the reported TGI of the following compound is 5 µM or greater: CC1(C)CCC[C@]23C(=O)O[C@](O)(C(=O)C4=C[C@@](C)(/C=C/CCCc5ccc6ccc7cccc8ccc5c6c78)CC[C@@]42O)[C@@H]13
Solution: -1

Exercise: Identify whether the reported TGI of the following compound is 5 µM or greater: NC(=O)CCC(NC(=O)OCc1ccccc1)C(=O)OCC(=O)c1ccccc1 (stereo not drawn)
Solution: 1

Exercise: Identify whether the reported TGI of the following compound is 5 µM or greater: COc1ccc(-c2ccc(/C=C/C(=O)NO)cc2)cc1
Solution: 1

Exercise: Identify whether the reported TGI of the following compound is 5 µM or greater: CCOC(=O)c1sc(-c2ccc(OS(=O)(=O)c3cccs3)c(C=O)c2)nc1C
Solution: -1

Exercise: Identify whether the reported TGI of the following compound is 5 µM or greater: Cc1cnc[nH]c1=O
Solution: 1

Exercise: Identify whether the reported TGI of the following compound is 5 µM or greater: CCSc1oc(-c2ccccc2)nc1[P+](c1ccccc1)(c1ccccc1)c1ccccc1
Solution: -1

Exercise: Identify whether the reported TGI of the following compound is 5 µM or greater: Nc1ccc(-c2nc3ccc4[nH]ncc4c3c3c2CCCC3)cc1F
Solution: 1

Exercise: Identify whether the reported TGI of the following compound is 5 µM or greater: Cc1cccc(NC(=O)C(=O)C2C(=O)NC(=O)NC2=O)c1C
Solution: 1

Exercise: Identify whether the reported TGI of the following compound is 5 µM or greater: COc1cc(C)c(C(=O)O[C@H]2[C@H](O[C@H]3[C@@H](O)COC(O[C@H]4C[C@H]5[C@@H]6CC=C7C[C@@H](O)CC[C@]7(C)[C@H]6CC[C@]5(C)[C@H]4[C@H](C)C(=O)CCC(C)C)[C@@H]3OC(C)=O)OC[C@@H](O)[C@@H]2O)c(C)c1 (stereo partly drawn)
Solution: -1

Exercise: Identify whether the reported TGI of the following compound is 5 µM or greater: COP(=O)(OC)C(N)CCSC (stereo not drawn)
Solution: 1

Exercise: Identify whether the reported TGI of the following compound is 5 µM or greater: Cc1nc(C)c(C(=O)Nc2cccc3c2C(=O)NC3=O)cc1C(=O)Nc1cccc2c1C(=O)NC2=O
Solution: 1
